What Observed Cmax, peak area was measured for each of the following?
# assayDetails: Clinical pharmacokinetics of ivermectin metabolites in blood of healthy volunteers
# Assay type: in vivo, human
# testSettings: PK subject 7, 50 µL blood
Form entry: value (counts) — number only.

What does the data say about its Observed Cmax, peak area? Entry: CCC(C)C1OC2(CCC1C)CC1CC(CC=C(C)C(OC3CC(OC)C(OC4CC(OC)C(O)C(C)O4)C(C)O3)C(C)C=CC=C3COC4C(O)C(CO)=CC(C(=O)O1)C34O)O2 (stereo not shown) [M2, 4-hydroxy-H2B1a]
1.39E+04

What does the data say about its Observed Cmax, peak area? Entry: CCC(C)C1OC2(CCC1C)CC1CC(CC=C(C)C(OC3CC(OC)C(OC4CC(O)C(O)C(C)O4)C(C)O3)C(C)C=CC=C3COC4C(O)C(CO)=CC(C(=O)O1)C34O)O2 (stereo not shown) [M4, 3″-O-desmethyl, 4-hydroxy-H2B1a]
4.09E+03

What does the data say about its Observed Cmax, peak area? Entry: CC[C@H](C)[C@H]1O[C@]2(CC[C@@H]1CO)C[C@@H]1C[C@@H](C/C=C(\C)[C@@H](O[C@H]3C[C@H](OC)[C@@H](O)[C@H](C)O3)[C@@H](C)/C=C/C=C3\CO[C@@H]4[C@H](O)C(C)=C[C@@H](C(=O)O1)[C@]34O)O2 [M5, 24-hydroxy-H2B1a monosaccharide]
8.58E+02

What does the data say about its Observed Cmax, peak area? Entry: CCC(C)C1OC2(CCC1C)CC1CC(CC=C(C)C(OC3CC(OC)C(OC4CC(O)C(O)C(C)O4)C(C)O3)C(C)C=CC=C3COC4C(O)C(C)=CC(C(=O)O1)C34O)O2 (stereo not shown) [M1, 3″-O-desmethyl-H2B1a]
1.56E+04

---

# assayDetails: Clinical pharmacokinetics of ivermectin metabolites in blood of healthy volunteers
# Type: in vivo, human
# testSettings: PK subject 3, 50 µL blood
endpointName: Observed Cmax, peak area (counts)
Form entry: value (counts) — number only.

What does the data say about its Observed Cmax, peak area? Entry: CC[C@H](C)[C@H]1O[C@]2(CC[C@@H]1CO)C[C@@H]1C[C@@H](C/C=C(\C)[C@@H](O[C@H]3C[C@H](OC)[C@@H](O)[C@H](C)O3)[C@@H](C)/C=C/C=C3\CO[C@@H]4[C@H](O)C(C)=C[C@@H](C(=O)O1)[C@]34O)O2 [M5, 24-hydroxy-H2B1a monosaccharide]
1.01E+03

What does the data say about its Observed Cmax, peak area? Entry: CCC(C)C1OC2(CCC1C)CC1CC(CC=C(C)C(OC3CC(OC)C(OC4CC(O)C(O)C(C)O4)C(C)O3)C(C)C=CC=C3COC4C(O)C(CO)=CC(C(=O)O1)C34O)O2 (stereo not shown) [M4, 3″-O-desmethyl, 4-hydroxy-H2B1a]
5.03E+03

What does the data say about its Observed Cmax, peak area? Entry: CCC(C)C1OC2(CCC1C)CC1CC(CC=C(C)C(OC3CC(OC)C(OC4CC(OC)C(O)C(C)O4)C(C)O3)C(C)C=CC=C3COC4C(O)C(CO)=CC(C(=O)O1)C34O)O2 (stereo not shown) [M2, 4-hydroxy-H2B1a]
1.31E+04

What does the data say about its Observed Cmax, peak area? Entry: CCC(C)C1OC2(CCC1C)CC1CC(CC=C(C)C(OC3CC(OC)C(OC4CC(O)C(O)C(C)O4)C(C)O3)C(C)C=CC=C3COC4C(O)C(C)=CC(C(=O)O1)C34O)O2 (stereo not shown) [M1, 3″-O-desmethyl-H2B1a]
1.39E+04

---

What Observed Cmax, peak area was measured for each of the following?
# assayDetails: Clinical pharmacokinetics of ivermectin metabolites in blood of healthy volunteers
# Type: in vivo, human
# testSettings: PK subject 10, 50 µL blood
Form entry: value (counts) — number only.

What does the data say about its Observed Cmax, peak area? Entry: CCC(C)C1OC2(CCC1C)CC1CC(CC=C(C)C(OC3CC(OC)C(OC4CC(O)C(O)C(C)O4)C(C)O3)C(C)C=CC=C3COC4C(O)C(C)=CC(C(=O)O1)C34O)O2 (stereo not shown)
1.60E+04

What does the data say about its Observed Cmax, peak area? Entry: CC[C@H](C)[C@H]1O[C@]2(CC[C@@H]1CO)C[C@@H]1C[C@@H](C/C=C(\C)[C@@H](O[C@H]3C[C@H](OC)[C@@H](O)[C@H](C)O3)[C@@H](C)/C=C/C=C3\CO[C@@H]4[C@H](O)C(C)=C[C@@H](C(=O)O1)[C@]34O)O2 [M5, 24-hydroxy-H2B1a monosaccharide]
7.23E+02

What does the data say about its Observed Cmax, peak area? Entry: CCC(C)C1OC2(CCC1C)CC1CC(CC=C(C)C(OC3CC(OC)C(OC4CC(OC)C(O)C(C)O4)C(C)O3)C(C)C=CC=C3COC4C(O)C(CO)=CC(C(=O)O1)C34O)O2 (stereo not shown) [M2, 4-hydroxy-H2B1a]
1.50E+04

What does the data say about its Observed Cmax, peak area? Entry: CCC(C)C1OC2(CCC1C)CC1CC(CC=C(C)C(OC3CC(OC)C(OC4CC(O)C(O)C(C)O4)C(C)O3)C(C)C=CC=C3COC4C(O)C(CO)=CC(C(=O)O1)C34O)O2 (stereo not shown) [M4, 3″-O-desmethyl, 4-hydroxy-H2B1a]
5.38E+03

---

# assayDetails: Clinical pharmacokinetics of ivermectin metabolites in blood of healthy volunteers
# Type: in vivo, human
# testSettings: PK subject 4, 50 µL blood
What Observed Cmax, peak area was measured for each of the following?
Form entry: value (counts) — number only.

What does the data say about its Observed Cmax, peak area? Entry: CCC(C)C1OC2(CCC1C)CC1CC(CC=C(C)C(OC3CC(OC)C(OC4CC(OC)C(O)C(C)O4)C(C)O3)C(C)C=CC=C3COC4C(O)C(CO)=CC(C(=O)O1)C34O)O2 (stereo not shown) [M2, 4-hydroxy-H2B1a]
7.42E+03

What does the data say about its Observed Cmax, peak area? Entry: CCC(C)C1OC2(CCC1C)CC1CC(CC=C(C)C(OC3CC(OC)C(OC4CC(O)C(O)C(C)O4)C(C)O3)C(C)C=CC=C3COC4C(O)C(C)=CC(C(=O)O1)C34O)O2 (stereo not shown)
8.48E+03

What does the data say about its Observed Cmax, peak area? Entry: CCC(C)C1OC2(CCC1C)CC1CC(CC=C(C)C(OC3CC(OC)C(OC4CC(O)C(O)C(C)O4)C(C)O3)C(C)C=CC=C3COC4C(O)C(CO)=CC(C(=O)O1)C34O)O2 (stereo not shown) [M4, 3″-O-desmethyl, 4-hydroxy-H2B1a]
4.08E+03

What does the data say about its Observed Cmax, peak area? Entry: CC[C@H](C)[C@H]1O[C@]2(CC[C@@H]1CO)C[C@@H]1C[C@@H](C/C=C(\C)[C@@H](O[C@H]3C[C@H](OC)[C@@H](O)[C@H](C)O3)[C@@H](C)/C=C/C=C3\CO[C@@H]4[C@H](O)C(C)=C[C@@H](C(=O)O1)[C@]34O)O2 [M5, 24-hydroxy-H2B1a monosaccharide]
7.22E+02
